Test system: Hep3B cell lines
protocol: MTT assay, growth inhibition of Hep3B cells
Type: cell-based
stated-conditions: Homo sapiens
parameter-measured: IC50 (µM)

molecule | IC50 (µM)
C#Cc1cccc(Nc2nc(Nc3cccc(NC(=O)c4cc(C(F)(F)F)cc(C(F)(F)F)c4)c3)nc3cc(OC)c(OC)cc23)c1 [Compound 35] | 3.27

1 = C#Cc1cccc(Nc2nc(Nc3cccc(NCc4ccccc4)c3)nc3cc(OC)c(OC)cc23)c1 [Compound 34]
2 = C#Cc1cccc(Nc2nc(Nc3ccc(Oc4ccccc4)cc3)nc3cc(OC)c(OC)cc23)c1 [Compound 19]
Returns: the argument ( 1 or 2 ) having the larger IC50. Bench note: the answer is the label of the chosen record.
1

From: patent US9394261B2
